Measured melting point, listed per entry for reference.

# Molecule, melting point
measured = [
    ("O=C(NNS(=O)(=O)c1ccccc1)c1ccc2[nH]ccc2c1", "209 to 211 °C"),
    ("CCOC(=O)NCC(O)c1cccc2c1CCN2C(=O)c1ccccc1 (stereo not given)", "143 °C"),
    ("CCOC(=O)C1=C(CO)NC(CO)=C(C(=O)OCC)C1c1ccccc1Cl", "190 to 191 °C"),
    ("CC(=O)NC[C@H]1CN(c2ccc(N3CCC(F)(COS(C)(=O)=O)CC3)c(F)c2)C(=O)O1", "182 to 183 °C"),
    ("CCOC1CC2(C)C(CCC3C4CCC(C(=O)OC)C4(C)CC(NCCC(C)C)C32)CC1O (stereo not given)", "122 to 124 °C"),
]
